subject of test: recombinant human EPHA2 (Homo sapiens (Human))
Sequence (P29317 24-976): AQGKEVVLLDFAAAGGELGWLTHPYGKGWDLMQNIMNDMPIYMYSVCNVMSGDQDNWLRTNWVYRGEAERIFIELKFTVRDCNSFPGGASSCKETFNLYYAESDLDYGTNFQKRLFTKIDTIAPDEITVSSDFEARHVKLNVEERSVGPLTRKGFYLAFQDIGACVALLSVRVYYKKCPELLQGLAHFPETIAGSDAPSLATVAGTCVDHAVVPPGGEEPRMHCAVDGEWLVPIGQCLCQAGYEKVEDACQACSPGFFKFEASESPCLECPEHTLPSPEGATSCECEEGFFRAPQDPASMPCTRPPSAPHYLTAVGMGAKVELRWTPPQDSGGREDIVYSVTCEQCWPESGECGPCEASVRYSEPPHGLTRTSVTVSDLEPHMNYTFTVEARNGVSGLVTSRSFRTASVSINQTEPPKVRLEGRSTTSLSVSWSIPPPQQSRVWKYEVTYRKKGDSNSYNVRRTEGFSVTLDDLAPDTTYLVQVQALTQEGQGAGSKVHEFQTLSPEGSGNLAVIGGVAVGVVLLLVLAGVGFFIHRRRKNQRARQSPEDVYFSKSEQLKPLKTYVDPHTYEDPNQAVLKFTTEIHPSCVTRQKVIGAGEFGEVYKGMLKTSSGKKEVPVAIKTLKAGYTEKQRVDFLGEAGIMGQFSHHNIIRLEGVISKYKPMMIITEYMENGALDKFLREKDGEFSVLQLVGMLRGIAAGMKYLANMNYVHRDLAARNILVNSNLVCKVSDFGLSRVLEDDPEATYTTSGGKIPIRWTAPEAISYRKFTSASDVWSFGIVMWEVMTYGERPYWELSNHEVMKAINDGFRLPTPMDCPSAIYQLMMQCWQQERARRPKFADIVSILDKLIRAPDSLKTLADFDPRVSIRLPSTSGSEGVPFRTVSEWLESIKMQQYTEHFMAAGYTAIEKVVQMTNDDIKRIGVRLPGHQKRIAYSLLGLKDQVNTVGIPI
experimental details: Z′-LYTE FRET-based in vitro biochemical kinase assay
test settings: recombinant human EPHA2 expressed in insect cells; read-out: Human EPHA2 IC50 (nM) ± SD
metric name: IC50

smiles representation: CCN1CCN(Cc2ccc(NC(=O)c3cc(Cl)cc(NC(=O)c4cncc(-c5cccs5)c4)c3)cc2C(F)(F)F)CC1
result value: > 10000 nM

----------
experimental details: in vitro
Format: in vitro ADME
test settings: mouse liver microsomes; read-out: t1/2 in mouse liver microsomes
metric name: half-life (h)

smiles representation: CCN1CCN(Cc2ccc(NC(=O)c3cc(Cl)cc(NC(=O)c4cncc(-c5cccs5)c4)c3)cc2C(F)(F)F)CC1
result value: 1.32
